Origin of values: the supplement of paper PMC11061612

test system: NCI-H1563 (Lung Adenocarcinoma); experiment: Bliss excess, mean over the matrix (fraction); higher = more synergy;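 further: after 72 h of two-drug dosing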
Each item that follows carries a reported Bliss excess.
Respond with the number and no other words.

[
  {
    "molecule": "Cc1cc2ncnn2cc1Nc1ncc2c(n1)n(C1CCOCC1)c(=O)n2C [AZD7648] + CCN(CCO)CCCOc1ccc2c(Nc3cc(CC(=O)Nc4cccc(F)c4)[nH]n3)ncnc2c1 [AZD2811] (first compound max 10 µM, 7x7, partner max 1 µM)",
    "Bliss excess": 0.0036
  }
]

In one line, give reported Bliss excess of the entry CCc1c2c(nc3ccc(O)cc13)-c1cc3c(c(=O)n1C2)COC(=O)[C@]3(O)CC [SN-38] + CN(C)CCCOc1ccc(-c2ccc3ncc4c(c3c2)n(C2CCOCC2)c(=O)n4C)cn1 [AZD0156] (first compound max 0.3 µM, 7x7, partner max 1 µM) . -0.0605

In one line, give reported Bliss excess of the entry NC1(C(=O)N[C@@H](CCO)c2ccc(Cl)cc2)CCN(c2ncnc3[nH]ccc23)CC1 [Capivasertib] + COc1nnc2ccc(N3CCC(c4ccc(OCCN5CCN(C)C(=O)[C@H]5C)cc4)CC3)nn12 [AZD5153] (first compound max 10 µM, 7x7, partner max 1 µM) . -0.0218

In one line, give reported Bliss excess of the entry Cc1c2c(nn1C)CSCc1cc(n(C)n1)CSc1cc(c3ccccc3c1)OCCCc1c(C(=O)O)n(C)c3c-2c(Cl)ccc13 [AZD5991] + CCN(CCO)CCCOc1ccc2c(Nc3cc(CC(=O)Nc4cccc(F)c4)[nH]n3)ncnc2c1 [AZD2811] (first compound max 1 µM, 7x7, partner max 1 µM) . -0.0248

In one line, give reported Bliss excess of the entry Cc1cc2ncnn2cc1Nc1ncc2c(n1)n(C1CCOCC1)c(=O)n2C [AZD7648] + CN(C)CCCOc1ccc(-c2ccc3ncc4c(c3c2)n(C2CCOCC2)c(=O)n4C)cn1 [AZD0156] (first compound max 10 µM, 7x7, partner max 1 µM) . -0.0164

====

tested on: RT4 (Bladder Carcinoma); assay: combination Emax (second highest fraction inhibited in the dose matrix, 72 h); higher = more inhibition; extreme values may be limits of the assay
experimentalEndpoint: combination Emax
Respond with the number and no other words.

Check out these entries, answers already filled in.
[
  {
    "compound": "CN(CCO)CC[C@H](CSc1ccccc1)Nc1ccc(S(=O)(=O)NC(=O)c2ccc(N3CCC([C@@H](O)c4ccccc4-c4ccc(Cl)cc4)CC3)cc2)cc1S(=O)(=O)C(F)(F)F [AZD4320] + C[C@@H](Nc1cc(F)cc(F)c1)c1cc(C(=O)N(C)C)cc2c(=O)cc(N3CCOCC3)oc12 [AZD8186] (first compound max 1 µM, 7x7, partner max 3 µM)",
    "measured": 0.583
  },
  {
    "compound": "Cc1cc2ncnn2cc1Nc1ncc2c(n1)n(C1CCOCC1)c(=O)n2C [AZD7648] + CCN(CCO)CCCOc1ccc2c(Nc3cc(CC(=O)Nc4cccc(F)c4)[nH]n3)ncnc2c1 [AZD2811] (first compound max 10 µM, 7x7, partner max 1 µM)",
    "measured": 0.491
  }
]

Here is the next item to consider.
In one line, give reported combination Emax of the entry CS(=O)(=O)CCNCc1ccc(-c2ccc3ncnc(Nc4ccc(OCc5cccc(F)c5)c(Cl)c4)c3c2)o1 [Lapatinib] + C[C@@H](Oc1cc(-c2cnn(C3CCNCC3)c2)cnc1N)c1c(Cl)ccc(F)c1Cl [Crizotinib] (first compound max 10 µM, 7x7, partner max 10 µM) . 0.916
